# assayed target: T1, hIL2-DM-his (human, UniProt P60568 21-153)
# T1 construct: expressed in ExpiCHO-S cells, nickel-column purified; also called hIL-2 mutein containing two point mutations K64G and N90R (with a his-tag); not shown: his-tag
# T1 sequence (P60568 21-153 K84G/N110R): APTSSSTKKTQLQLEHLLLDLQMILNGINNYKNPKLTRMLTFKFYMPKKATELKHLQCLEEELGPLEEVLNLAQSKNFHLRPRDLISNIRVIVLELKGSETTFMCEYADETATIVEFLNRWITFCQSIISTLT
# method summary: BLI ForteBio, Ab on Protein A sensor
Catalogue of koff values
quantity name: koff (s⁻¹)

>  <binder>
hS4B6-H6K3-hu06 (antibody, V domains shown, H6K3 with heavy chain N65S) VH: QVQLVQSGAEVKKPGATVKISCKVSGDTITAYYLHWVRQAPGQGLEWIGRIDPEDDSTKYAENFKSRVTITADTSTNTAYMELSSLRSEDTAVYYCTTVTFYYSRELRWFAYWGQGTLVTVSS VL: DIVLTQSPATLSLSPGERATLSCQASQDIGNYLSWYQQKPGQAPRLLIYSATSLADGIPARFSGSRSGTDYTLTISSLEPEDFAVYYCLQHYSTPYTFGQGTKLEIK

>  <quantity name>
koff

>  <recorded number>
0.0192

$$$$
>  <binder>
hS4B6-H6K3-hu12 (antibody, V domains shown, H6K3 with light chain Y71F) VH: QVQLVQSGAEVKKPGATVKISCKVSGDTITAYYLHWVRQAPGQGLEWIGRIDPEDDSTKYAENFKNRVTITADTSTNTAYMELSSLRSEDTAVYYCTTVTFYYSRELRWFAYWGQGTLVTVSS VL: DIVLTQSPATLSLSPGERATLSCQASQDIGNYLSWYQQKPGQAPRLLIYSATSLADGIPARFSGSRSGTDFTLTISSLEPEDFAVYYCLQHYSTPYTFGQGTKLEIK

>  <quantity name>
koff

>  <recorded number>
0.0174

$$$$
